- experimental details: Placebo controlled, dose escalation pharmacokinetic study of oral (Z)-Endoxifen capsules (serum endoxifen; incl. accumulation ratios and dose linearity)
- Assay type: in vivo, human
- condition context: female, human, serum, oral, 1 mg; Day 1 hr 3; read-out: Serum concentration, Median
- From the text: An objective of the study was to assess the safety and tolerability of oral (Z)-Endoxifen when administered […] orally as a capsule to healthy female volunteers. A secondary objective was to assess the pharmacokinetics of multiple doses of oral (Z)-Endoxifen in the subjects. Generally, healthy female volunteers aged ≥18 years and ≤65 years were enrolled. 24 participants were enrolled in 3 cohorts and will be administered study drug orally. […]
observation type: concentration at 3 h
Lab note: write values as number then unit, every time.

Prompt: Bench note: what concentration at 3 h did CC/C(=C(\c1ccc(O)cc1)c1ccc(OCCNC)cc1)c1ccccc1 [(Z)-Endoxifen] show?
Response: 16.1 nM
